The entries below come with measured apparent KD of MS2 coat protein values attached.
Tested on: MS2 coat protein
Experiment: apparent KD of MS2 coat protein, switch OFF state (with FMN for OFF switches, without FMN for ON switches); designed switch direction (-1 OFF switch, 1 ON switch): -1; higher = weaker reporter binding
Details: FMN input: 0 or 200 uM; Eterna round: R93 (includes R88 designs)
OBSERVED_PROPERTY: apparent KD of MS2 coat protein (nM)

SEQUENCE_INPUT: AAGAGUACAGGAUAUAUGUGAAAAGAGUCGAAAGACUCGGGACAUGAGGAUCACCCAUGUAGAAGGGUACUCAA [Diamond 75]
REPORTED: 79.7

SEQUENCE_INPUT: AACUGGCUAGGAUAUACGUAAUAAAAUAUCAGUGAGAUUUCACAUGAGGAUCACCCAUGUAGAAGGAGCAAAAU [Esxereorar]
REPORTED: 16.6

SEQUENCE_INPUT: ACAUGUACAGGAUAUACGUGGAAAAAAAAAAAAAAAAAACUACAUGAGGAUCACCCAUGUAGAAGGGUACAUGA [Ex2 Design 194: Random 12C]
REPORTED: 37

SEQUENCE_INPUT: AUCUACCUAGGAUAUACAUGAGGAUCACCCAUGUACAGAUACAACUAGGGAAACACACGUAGAAGGAGGUAGAU [JR_Exc003_Sub1207]
REPORTED: 37.3

SEQUENCE_INPUT: CCAAGACAUGAGGAUCACCCAUGUGAGGAUAUAGGUGUAUGCAAAAAAAAGUUAAAAACUAGAAGGCACAGAAA [JR_Exc001_Sub306]
REPORTED: 25

SEQUENCE_INPUT: AAGAGUACAGGAUAUAUGUGAAAAGAGUCGAAAGACUCAAAACAUGAGGAUCACCCAUGUAGAAGGGUACUCAA [Diamond 74]
REPORTED: 27.3

SEQUENCE_INPUT: UCCGGACAUGAGGAUCACCCAUGUGAGGAUAUAUAACGUGGGACUGGAAACAAUCCCAAUAGAAGGCACAUGAC [Reisatridi]
REPORTED: 20.2

SEQUENCE_INPUT: GAAAAUGGAGGAUAUACAUGAGGAUCACCCAUGUGUAAAAAAAAUUACACAAAAGAAAGUAGAAGGCCAUAAAA [Mat - Exclusion 3 - Mayanna mod - D107]
REPORTED: 174

SEQUENCE_INPUT: AAGUAUAGAGGAUAUACAUAGAUACAGAUUCAUGUAGAACUACAUGAGGAUCACCCAUGUAGAAGGCUAUAAUA [AJ 34]
REPORTED: 27.9

SEQUENCE_INPUT: GGUUGGCGAGGAUAUACAUGAGGAUCACCCAUGUGAGAGAAAAUAGUGAGAAAGAAAAGUAGAAGGCGCUGACG [salish99-ex3-42]
REPORTED: 235

SEQUENCE_INPUT: AACUGACAUGAGGAUCACCCAUGUCAGGAUAUGAUAUGUAAAAAAAAAAAAAUACUUAUCAGAAGGGACAUGGG [Design 40: Sub-opt AB]
REPORTED: 15.4

SEQUENCE_INPUT: GUAAACCUAGGAUAUACAUGAGGAUCACCCAUGUAAAAAAUAAUAAAAAGAAAAAAAAGUAGAAGGAGGUAGAU [JR_Exc003_Sub1226]
REPORTED: 44

SEQUENCE_INPUT: AGAAAACAUGAGGAUCACCCAUGUCAGGAUAUCCUGCGGUGAUACACACCGCGUUGUCGGAGAAGGGACAGGGA [Tiesesmari]
REPORTED: 81.9

SEQUENCE_INPUT: AAUAAGUGAGGAUAUACUAAAGAAAUGAAAAGAAAUAAAGAACAUGAGGAUCACCCAUGUAGAAGGCACAAUAA [Sekheperenre]
REPORTED: 24.5

SEQUENCE_INPUT: AGCAAGUGAGGAUAUGCGAAGUCAGGACAAACACUGACGAAGCAGAAGGCACAUGAGGAUCACCCAUGUAAGCA [Mat - Exaclusion 4 - Eli mod - D60]
REPORTED: 29.8

SEQUENCE_INPUT: AAAAAACAUGAGGAUCACCCAUGUAAGGAUAUGCGAAAAUAAAAUAAAAUAAAAUAAAGCAGAAGGUACAAAAG [Mat - Exclusion 1 - Eli mod - D3]
REPORTED: 49.5

SEQUENCE_INPUT: AAGAACUCAGGAUAUACAUGAGGAUCACCCAUGUAAAAGAAAGAAAAGGGAAAGAAAAGUAGAAGGGAGAAGAA [Neferkheperure-waenre Amenhotep IV]
REPORTED: 36.2

SEQUENCE_INPUT: CUCUUGUGAGGAUAUUGAAGAAAAGAAGAGAAAGAAAAGAACAAGAAGGCACAUGAGGAUCACCCAUGUAAGAA [EteRNA is fun!]
REPORTED: 44.2

SEQUENCE_INPUT: AAGCUGGUAGGAUAUACUAGGGCAACUAAUGCACCGAGAGGACAUGAGGAUCACCCAUGUAGAAGGGCCAGAAA [Mat - Exclusion 2 - JL mod - D63]
REPORTED: 82.3

SEQUENCE_INPUT: AAAAAUGGAGGAUAUACAUGAGGAUCACCCAUGUGAGACCAAGAAAAAGAAAAAGAAAGUAGAAGGCCAUAAAA [Ex 3 May 24]
REPORTED: 152

SEQUENCE_INPUT: AGCACGUCAGGAUAUACGAAAAAAAAGGGUAAAAAAAACACACAUGAGGAUCACCCAUGUAGAAGGGACAAGCA [Diamond 94]
REPORTED: 86.8

SEQUENCE_INPUT: AACUGACAUGAGGAUCACCCAUGUCAGGAUAUGACUUGAUAGAAAAAAAAAUAUCAUGUCAGAAGGGACAUGGG [Design 56 :P Sub-opt I]
REPORTED: 12.8

SEQUENCE_INPUT: AAGAAGUGAGGAUAUUCGGAUAGGAAAACGAAAACCUAUCCGAAGAAGGCACAUGAGGAUCACCCAUGUAAAAA [Mat - Exaclusion 4 - Eli mod - D41]
REPORTED: 54.3

SEQUENCE_INPUT: AACUAGUCAGGAUAUACGAACAUGUCAAAAAACAUGAAGGGACAUGAGGAUCACCCAUGUAGAAGGGACUAGCA [74%, Web mod - With 3 less G's]
REPORTED: 209

SEQUENCE_INPUT: AGAAAGUCAGGAUAUACGAAAGUGCGAAAGCACAAAAGGGAACAUGAGGAUCACCCAUGUAGAAGGGACAAGAA [Diamond 77]
REPORTED: 170
